Test system: SW982 (Other Solid Carcinomas)
Test: combination Emax (second highest fraction inhibited in the dose matrix, 72 h); higher = more inhibition; extreme values may be limits of the assay
# maps each entry to its combination Emax

# COMPOUND, combination Emax
rows = [
    ("NC1(C(=O)N[C@@H](CCO)c2ccc(Cl)cc2)CCN(c2ncnc3[nH]ccc23)CC1 [Capivasertib] + COc1nnc2ccc(N3CCC(c4ccc(OCCN5CCN(C)C(=O)[C@H]5C)cc4)CC3)nn12 [AZD5153] (first compound max 10 µM, 7x7, partner max 1 µM)", 0.848),
    ("C=CCn1c(=O)c2cnc(Nc3ccc(N4CCN(C)CC4)cc3)nc2n1-c1cccc(C(C)(C)O)n1 [AZD1775] + C1CN(CCC1(C(=O)N[C@@H](CCO)C2=CC=C(C=C2)Cl)N)C3=NC=NC4=C3C=CN4 [Capivasertib] (first compound max 3 µM, partner max 3 µM)", 0.674),
    ("NC1(C(=O)N[C@@H](CCO)c2ccc(Cl)cc2)CCN(c2ncnc3[nH]ccc23)CC1 [Capivasertib] + Cn1cnc2c(F)c(Nc3ccc(Br)cc3Cl)c(C(=O)NOCCO)cc21 [Selumetinib] (first compound max 10 µM, 7x7, partner max 10 µM)", 0.574),
    ("CC1(C)CCC(CN2CCN(c3ccc(C(=O)NS(=O)(=O)c4ccc(NCC5CCOCC5)c([N+](=O)[O-])c4)c(Oc4cnc5[nH]ccc5c4)c3)CC2)=C(c2ccc(Cl)cc2)C1 [Venetoclax] + Cc1cc2ncnn2cc1Nc1ncc2c(n1)n(C1CCOCC1)c(=O)n2C [AZD7648] (first compound max 1 µM, 7x7, partner max 10 µM)", 0.27),
    ("N#Cc1cnc(Nc2cc(NC[C@H]3CNCCO3)c(C(F)(F)F)cn2)cn1 [SRA737] + O=c1[nH]cc(F)c(=O)[nH]1 [5-Fluorouracil] (first compound max 10 µM, 7x7, partner max 20 µM)", 0.679),
    ("COc1cc2c(cc1OCCCCCOc1cc3c(cc1OC)C(=O)N1C=C(C)C[C@H]1C=N3)N=C[C@@H]1CC(C)=CN1C2=O [SG3199] + O=C(c1cc(Cc2n[nH]c(=O)c3ccccc23)ccc1F)N1CCN(C(=O)C2CC2)CC1 [Olaparib] (first compound max 0.001 µM, 7x7, partner max 10 µM)", 0.43),
    ("CS(=O)(=O)CCNCc1ccc(-c2ccc3ncnc(Nc4ccc(OCc5cccc(F)c5)c(Cl)c4)c3c2)o1 [Lapatinib] + NC1(c2ccc(-c3nc4ccn5c(=O)[nH]nc5c4cc3-c3ccccc3)cc2)CCC1 [MK-2206] (first compound max 10 µM, 7x7, partner max 10 µM)", 0.894),
]
